Provide the reported pIC50 of each item.
biological target: PDE1B (Homo sapiens, UniProt Q01064); test: PDE1 inhibition assay (PDE1B), SPA with tritium labelled cAMP; type: biochemical; settings: 15 nM tritium labelled cAMP, 1 hr at room temperature, SPA beads; read-out: PDE1B, IC50
Sequence (Q01064 whole entry): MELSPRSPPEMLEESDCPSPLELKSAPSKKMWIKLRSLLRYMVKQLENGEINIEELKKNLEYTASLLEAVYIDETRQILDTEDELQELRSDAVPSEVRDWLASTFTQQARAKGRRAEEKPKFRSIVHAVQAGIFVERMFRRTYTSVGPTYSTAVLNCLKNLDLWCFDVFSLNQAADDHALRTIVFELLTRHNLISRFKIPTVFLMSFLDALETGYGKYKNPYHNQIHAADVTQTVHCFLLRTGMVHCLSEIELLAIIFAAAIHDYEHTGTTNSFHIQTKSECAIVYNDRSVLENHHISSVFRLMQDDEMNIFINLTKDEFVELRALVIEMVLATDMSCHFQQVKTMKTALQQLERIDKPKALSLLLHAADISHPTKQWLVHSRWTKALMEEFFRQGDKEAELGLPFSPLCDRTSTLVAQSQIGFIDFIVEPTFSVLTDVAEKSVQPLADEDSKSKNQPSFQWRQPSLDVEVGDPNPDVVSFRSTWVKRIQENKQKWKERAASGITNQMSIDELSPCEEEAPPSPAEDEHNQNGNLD
Numbers only, as −log10 of the molar value.

INSERT INTO results (compound, outcome_measure, observed) VALUES
  ('CCOc1ncccc1-c1cc(NCc2ccnc(OC)c2)c2c(C(C)C)nn(C)c2n1 [Example 7]', 'pIC50', 8.59),
  ('CCOc1ncccc1-c1cc(NCc2cc[nH]n2)c2c(C(C)CC)nc(C)n2n1 (single isomer, unassigned; (-)) [Example 52]', 'pIC50', 9.19),
  ('CCOc1ncccc1-c1cc(NCc2cnc(C)s2)c2c(C(C)C)nn(C)c2n1 [Example 28]', 'pIC50', 8.36),
  ('CCOc1ncccc1-c1cc(NCc2ccccn2)c2c(C(C)C)nn(C)c2n1 [Example 40]', 'pIC50', 8.05),
  ('CCOc1ncccc1-c1cc(NCc2nc(C)no2)c2c(C(C)C)nc(C)n2n1 [Example 46]', 'pIC50', 8.39),
  ('Cc1nc(C(C)C)c2c(NCc3ncn(C)n3)cc(-c3cccc4ncoc34)nn12 [Example 81]', 'pIC50', 9.54),
  ('CCOc1ncccc1-c1cc(NCc2cnc(C)s2)c2c(C(C)C)nc(C)n2n1 [Example 17]', 'pIC50', 8.82);

# next compound below
Suppose we examine the compound CCOc1ncccc1-c1cc(NCc2cn[nH]c2)c2c(C(C)C)nn(C)c2n1 [Example 30] ; what pIC50 value has been reported?
7.80

----------
This document collects IC50 values reported for PDE1A (Homo sapiens).
Please state the number and follow it with the unit.

Here are 2 compounds together with their reported answers.
INSERT INTO results (compound, outcome_measure, observed) VALUES
  ('CCOc1ncccc1-c1cc(NCc2ncon2)c2c(C(C)C)nc(C)n2n1', 'IC50', '40 nM'),
  ('CCOc1ncccc1-c1cc(NCc2ncn(C)n2)c2c(C(C)CC)nc(C)n2n1 (single isomer, unassigned; (-)) [Example 49]', 'IC50', '14 nM');

Suppose we examine the compound COc1ncncc1-c1cc(NCc2ncn(C)n2)c2c(C(C)C)nn(C)c2n1 ; what IC50 value has been reported?
66 nM

----------
molecular target: PDE1B (Homo sapiens, UniProt Q01064); experiment: PDE1 inhibition assay (PDE1B), SPA with tritium labelled cAMP; assay type: biochemical; settings: 15 nM tritium labelled cAMP, 1 hr at room temperature, SPA beads; read-out: PDE1B, IC50
# binning rule on IC50: low (below 4 nM), medium (4 nM to below 8 nM), high (8 nM or more)

INSERT INTO results (compound, group_label) VALUES
  ('CCOc1ncccc1-c1cc(NCc2ncon2)c2c(C(C)C)nc(C)n2n1 [Example 43]', 'medium'),
  ('COc1ncncc1-c1cc(NCc2ncn(C)n2)c2c(C(C)C)nn(C)c2n1 [Example 64]', 'high'),
  ('CCOc1ncccc1-c1cc(NCc2ncn(C)n2)c2c(C(C)CC)nc(C)n2n1 (single isomer, unassigned; (+)) [Example 50]', 'low'),
  ('CCOc1ncccc1-c1cc(NCc2cc[nH]n2)c2c(C(C)C)nn(C)c2n1 [Example 3]', 'medium'),
  ('CCOc1ncccc1-c1cc(NCc2ccn(C)n2)c2c(C(C)C)nn(C)c2n1 [Example 21]', 'medium'),
  ('CCOc1ncccc1-c1cc(NCc2cccnc2F)c2c(C(C)C)nc(C)n2n1 [Example 73]', 'low');

Kindly state the category for this compound: CCOc1ncccc1-c1cc(NCc2cnn(C)c2)c2c(C(C)CC)nc(C)n2n1 (single isomer, unassigned; (-)) [Example 47]
medium

Kindly state the category for this compound: CCOc1cnccc1-c1cc(NCc2ncn(C)n2)c2c(C(C)C)nn(C)c2n1 [Example 68]
medium

Kindly state the category for this compound: CCOc1ncccc1-c1cc(NCc2cccc(OC)n2)c2c(C(C)C)nn(C)c2n1 [Example 41]
high

----------
This document collects IC50 values reported for PDE1A (Homo sapiens, UniProt P54750).
Give bare numbers, in nM.

Here are 4 compounds together with their reported answers.
INSERT INTO measurements (compound, unit_of_measurement, observed) VALUES
  ('Cc1coc(-c2cc(NCc3ncn(C)n3)c3c(C(C)C)nn(C)c3n2)n1 [Example 59]', 'nM', 99),
  ('CCOc1ncccc1-c1cc(NCc2ncccn2)c2c(C(C)C)nc(C)n2n1 [Example 75]', 'nM', 11),
  ('CCOc1ncccc1-c1cc(NCc2cc(C)[nH]n2)c2c(C(C)C)nn(C)c2n1 [Example 6]', 'nM', 14),
  ('CCOc1ncccc1-c1cc(NCc2ccnc(OC)c2)c2c(C(C)CC)nc(C)n2n1 (single isomer, unassigned; (+)) [Example 53]', 'nM', 62);

Suppose we examine the compound CCOc1ncccc1-c1cc(NCc2cnn(C)c2)c2c(C(C)C)nc(C)n2n1 [Example 22] ; what IC50 value has been reported?
17

----------
biological target: PDE1B (Homo sapiens, UniProt Q01064); test: PDE1 inhibition assay (PDE1B), SPA with tritium labelled cAMP; assay type: biochemical; settings: 15 nM tritium labelled cAMP, 1 hr at room temperature, SPA beads; read-out: PDE1B, IC50
OUTCOME_MEASURE: log10 IC50 (log10 of the value in nM)
Lab note - IC50 converted to log10 from values in nM.

Here are 10 compounds together with their reported answers.
INSERT INTO results (compound, outcome_measure, observed) VALUES
  ('CCOc1ncccc1-c1cc(NCc2nccc(C)n2)c2c(C(C)C)nn(C)c2n1', 'log10 IC50', 1.40),
  ('CCOc1ncccc1-c1cc(NCc2ccnc(OC)c2)c2c(C(C)C)nc(C)n2n1', 'log10 IC50', 0.23),
  ('CCOc1ncccc1-c1cc(NCc2cnn(C)c2)c2c(C(C)C)nn(C)c2n1', 'log10 IC50', 0.76),
  ('CCCOc1nnccc1-c1cc(NCc2ncn(C)n2)c2c(C(C)C)nn(C)c2n1', 'log10 IC50', 0.43),
  ('CCOc1ncccc1-c1cc(NCc2cc(C)[nH]n2)c2c(C(C)C)nn(C)c2n1', 'log10 IC50', 0.08),
  ('CCOc1ncccc1-c1cc(NCc2cc(OC)ccn2)c2c(C(C)C)nn(C)c2n1', 'log10 IC50', 0.53),
  ('CCOc1cnccc1-c1cc(NCc2cnn(C)c2)c2c(C(C)C)nc(C)n2n1', 'log10 IC50', 0.80),
  ('CCOc1ncccc1-c1cc(NCc2cnn(C)n2)c2c(C(C)C)nc(C)n2n1', 'log10 IC50', 0.71),
  ('CCOc1ncccc1-c1cc(NCc2cc(C)[nH]n2)c2c(C(C)C)nc(C)n2n1', 'log10 IC50', -0.51),
  ('CCOc1ncccc1-c1cc(NCc2nnn(C)n2)c2c(C(C)C)nn(C)c2n1', 'log10 IC50', 0.45);

Working through the 6 compounds below one at a time, give log10 IC50 for each.
1. CCOc1ncccc1-c1cc(NCc2cccc(C)n2)c2c(C(C)C)nn(C)c2n1
2. CCOc1ncccc1-c1cc(NCc2cnn(C)c2)c2c(C(C)CC)nc(C)n2n1 (single isomer, unassigned; (+)) [Example 48]
3. CCOc1ncccc1-c1cc(NCc2cn(C)nn2)c2c(C(C)C)nn(C)c2n1
4. CCOc1ncccc1-c1cc(NCc2ccccn2)c2c(C(C)C)nc(C)n2n1
5. CCOc1ncccc1-c1cc(NCc2noc(C)n2)c2c(C(C)C)nc(C)n2n1
6. CCOc1ncccc1-c1cc(NCc2ncn(C)n2)c2c(C(C)CC)nc(C)n2n1 (single isomer, unassigned; (-)) [Example 49]

1.30
-0.19
0.20
1.43
-0.46
0.15

Working through the 2 compounds below one at a time, give log10 IC50 for each.
1. CCOc1ncccc1-c1cc(NCc2ncn(C)n2)c2c(C(C)C)nc(C)n2n1
2. CCOc1ncccc1-c1cc(NCc2nc(C)no2)c2c(C(C)C)nn(C)c2n1

1: -0.55; 2: 0.89

Working through the 4 compounds below one at a time, give log10 IC50 for each.
1. CCOc1ncccc1-c1cc(NCc2cnc(C)o2)c2c(C(C)C)nn(C)c2n1
2. CCOc1ncccc1-c1cc(NCc2cccc3cncn23)c2c(C(C)C)nc(C)n2n1
3. CCOc1ncccc1-c1cc(NCc2ccc(OC)nc2)c2c(C(C)C)nn(C)c2n1
4. CCOc1ncccc1-c1cc(NCc2ncccn2)c2c(C(C)C)nn(C)c2n1

1: 1.00; 2: 0.74; 3: 1.43; 4: 0.60
